assay: Antitumor activity in vivo against the 6C3HED lymphosarcoma, dosed for 8 days at 300 mg/kg; conditions: Mus musculus, 192 h
Tag: yes if measured inhibition in vivo at 300 mg/kg is not below 20%, no if it is.

Illustrative cases are given below, each with its answer.
Input: Does the compound Cc1ccc(S(=O)(=O)NC(=O)NC2CCC(O)CC2)cc1 (stereo not drawn) have recorded inhibition in vivo at 300 mg/kg that is 20% or more?
Output: no

Input: Does the compound `Cc1ccc(S(=O)(=O)NC(=O)Nc2ccc(Cl)cc2)cc1` have recorded inhibition in vivo at 300 mg/kg that is 20% or more?
Output: yes

Input: Does the compound `Cc1ccc(S(=O)(=O)NC(=O)NCc2ccccc2)cc1` have recorded inhibition in vivo at 300 mg/kg that is 20% or more?
Output: no

Input: Does the compound `CCCOc1cccc(NC(=O)NS(=O)(=O)c2ccc(C)cc2)c1` have recorded inhibition in vivo at 300 mg/kg that is 20% or more?
Output: no

Input: Does the compound `CC(=O)Nc1ccc(S(=O)(=O)NC(=O)Nc2ccc(C(F)(F)F)cc2)cc1` have recorded inhibition in vivo at 300 mg/kg that is 20% or more?
Output: yes

Input: Does the compound `Cc1ccc(S(=O)(=O)NC(=O)Nc2ccc(Cl)cc2)cc1C` have recorded inhibition in vivo at 300 mg/kg that is 20% or more?
Output: yes

---
Input: Does the compound `Cc1ccc(S(=O)(=O)NC(=O)Nc2cc(Cl)cc(Cl)c2)cc1` have recorded inhibition in vivo at 300 mg/kg that is 20% or more?
Output: yes

Input: Does the compound `Cc1ccc(S(=O)(=O)NC(=O)Nc2ccc(N(C)C)cc2)cc1` have recorded inhibition in vivo at 300 mg/kg that is 20% or more?
Output: yes

###

assay: Antitumor activity in vivo against the 6C3HED lymphosarcoma, dosed for 8 days at 300 mg/kg; settings: Mus musculus, 192 h
Binned inhibition in vivo at 300 mg/kg; ranges: LOW (below 1%), MEDIUM (1% to below 60%), HIGH (60% or more)

Input: Exam item: assign `Cc1ccc(S(=O)(=O)NC(=O)Nc2cccc(C)c2)cc1` to the correct category.
Output: LOW

Input: Exam item: assign `O=C(Nc1ccc(F)cc1)NS(=O)(=O)c1ccc(Cl)cc1` to the correct category.
Output: HIGH

Input: Exam item: assign `O=C(Nc1ccc(Br)cc1)NS(=O)(=O)c1ccc2c(c1)CCC2` to the correct category.
Output: HIGH

---
Input: Exam item: assign `O=C(NC(=O)c1c(F)cccc1F)Nc1ccc(Cl)cc1` to the correct category.
Output: MEDIUM

Input: Exam item: assign `Cc1ccc(S(=O)(=O)NC(=O)Nc2ccc(Cl)cc2Cl)cc1` to the correct category.
Output: MEDIUM

Input: Exam item: assign `CC(C)c1ccc(S(=O)(=O)NC(=O)Nc2ccc(Cl)cc2)cc1` to the correct category.
Output: HIGH

Input: Exam item: assign `Cc1ccc(S(=O)(=O)NC(=O)Nc2nc(Cl)cc(Cl)n2)cc1` to the correct category.
Output: LOW

Input: Exam item: assign `Cc1ccc(S(=O)(=O)NC(=O)Nc2ccc(Cl)c([N+](=O)[O-])c2)cc1` to the correct category.
Output: MEDIUM

Input: Exam item: assign `O=C(Nc1ccc(Cl)cc1)NS(=O)(=O)c1ccc2ccccc2c1` to the correct category.
Output: HIGH

Input: Exam item: assign `N#Cc1cccc(S(=O)(=O)NC(=O)Nc2ccc(Cl)cc2)c1` to the correct category.
Output: MEDIUM

Input: Exam item: assign `COc1ccc(NC(=O)NS(=O)(=O)c2ccc(C)cc2)cc1` to the correct category.
Output: MEDIUM

Input: Exam item: assign `O=C(Nc1ccc(Cl)cc1)NS(=O)(=O)c1ccc([N+](=O)[O-])cc1` to the correct category.
Output: HIGH

Input: Exam item: assign `Cc1ccc(S(=O)(=O)NC(=O)Nc2cnccn2)cc1` to the correct category.
Output: LOW

Input: Exam item: assign `Cc1ccc(S(=O)(=O)NC(=O)Nc2ccc3[nH]ncc3c2)cc1` to the correct category.
Output: LOW
